Reference for the values: patent US9409884B2

Target or system: AMPK
Test protocol: AMPK activation, enzyme-linked immunosorbent assay
Format: biochemical
Protocol conditions: Table 10, compounds of Table 3
Reported property: EC50

// below: answered compounds
{"Compound": "N#Cc1ccc(CN2CCC(NC(=O)c3ccc(C(=O)N4CCN(c5ccc(C(F)(F)F)cn5)CC4)cc3)CC2)cc1", "EC50": "< 100 nM"}
{"Compound": "N#Cc1ccc(CN2CCC(NC(=O)c3ccc4c(c3)CN(Cc3ccc(F)cc3)CC4)CC2)cc1", "EC50": "< 100 nM"}
{"Compound": "N#Cc1ccc(CN2CCC(NC(=O)c3ccc(C(=O)NC4CCN(Cc5ccccc5)CC4)cc3)CC2)cc1", "EC50": "10000 to 100000 nM"}
{"Compound": "N#Cc1ccc(C(=O)N2CCC(NC(=O)c3nc4ccc(OC5CCN(c6ccc(C(F)(F)F)cc6)CC5)cc4o3)CC2)cc1", "EC50": "< 100 nM"}
{"Compound": "N#Cc1ccc(CN2CCc3ccc(C(=O)NC4CCN(Cc5ccc(C(F)(F)F)cc5)CC4)cc3C2)cc1", "EC50": "1000 to 10000 nM"}
{"Compound": "O=C(c1ccncc1)N1CC2CC1CN2C(=O)c1nc2ccc(OC3CCN(c4ccc(C(F)(F)F)cc4)CC3)cc2o1 (stereo not shown)", "EC50": "100 to 1000 nM"}

Asked: Report EC50 for `CC(C)(C)OC(=O)N1CCC(NC(=O)c2nc3ccc(OC4CCN(c5ccc(C(F)(F)F)cc5)CC4)cc3s2)CC1` please.
Given back: 1000 to 10000 nM

* * *

Target or system: AMPK
Test protocol: AMPK activation, enzyme-linked immunosorbent assay
Assay type: biochemical
Protocol conditions: Table 8, compounds of Table 1
Reported property: EC50

// below: answered molecules
{"Smiles repr": "O=S(=O)(NC1CCN(Cc2cccc(C(F)(F)F)c2)CC1)c1ccc(OC2CCN(c3ccc(C(F)(F)F)cc3)CC2)nc1", "Target or system": "AMPK", "EC50": "100 to 500 nM"}
{"Smiles repr": "O=C(NC1CCN(Cc2ccncc2)CC1)c1ccc(OC2CCN(c3ccc(C(F)(F)F)cc3)CC2)nc1", "Target or system": "AMPK", "EC50": "< 100 nM"}
{"Smiles repr": "CN(C(=O)c1cc2cc(OC3CCN(c4ccc(C(F)(F)F)cc4)CC3)ccc2o1)C1CCN(Cc2ccccn2)CC1", "Target or system": "AMPK", "EC50": "< 100 nM"}

Then there is this molecule:
Asked: Report EC50 for `O=C(NC1CCN(Cc2cn(C(c3ccccc3)(c3ccccc3)c3ccccc3)cn2)CC1)c1ccc(OC2CCN(c3ccc(C(F)(F)F)cc3)CC2)cn1` please.
Given back: 1000 to 5000 nM

* * *

# EC50 annotations
Target or system: AMPK
Test protocol: AMPK activation, enzyme-linked immunosorbent assay
Format: biochemical
Protocol conditions: Table 13, compounds of Table 6

// below: answered compounds
{"Smiles repr": "COc1ccc(CN2CCC(NC(=O)c3cc4cc(C(=O)N5CCN(Cc6ccc(S(C)(=O)=O)c(Cl)c6)CC5)ccc4o3)CC2)cc1F", "Reported property": "EC50", "Result value": "< 100 nM"}
{"Smiles repr": "N#Cc1ccc(CN2CCC(NC(=O)c3cc4cc(C(=O)NC5CCN(Cc6ccc(-n7cccn7)cc6)CC5)ccc4o3)CC2)cc1", "Reported property": "EC50", "Result value": "100 to 1000 nM"}
{"Smiles repr": "O=C(NC1CCN(Cc2cc(F)cc(F)c2)CC1)c1cc2cc(CN3CCC(Oc4ccc(C(F)(F)F)cc4)CC3)ccc2o1", "Reported property": "EC50", "Result value": "< 100 nM"}

Then there is this compound:
Asked: Item `COc1ccc(CN2CCC(NC(=O)c3cc4cc(C(=O)N5CCN(Cc6ccc(S(C)(=O)=O)cc6)CC5)ccc4o3)CC2)cc1F` with AMPK - EC50?
Given back: < 100 nM
